Parameter Residual conc.: see the listing below.
Tested on: hepatocytes from male rats (Sprague Dawley)
Measurement Protocol: In vitro metabolism study in rat hepatocytes in suspension, GC-MS
Assay Conditions: male, Sprague-Dawley, rat, 4 h, 100 μM
Reported Metric: Residual conc. (µM)

# Compound, System, Reported Metric, Reading
data = [
    ("CC(C=O)Cc1ccc(C(C)(C)C)cc1 (stereo not shown) [Lilial™, 3-(4-tert-butylphenyl)-2-methylpropanal]", "hepatocytes from male rats (Sprague Dawley)", "Residual conc.", 0),
    ("CC(C)c1ccc(CCCC=O)cc1", "hepatocytes from male rats (Sprague Dawley)", "Residual conc.", 0),
    ("CC(C)(C)c1ccc(CCCC=O)cc1", "hepatocytes from male rats (Sprague Dawley)", "Residual conc.", 0.7),
    ("CC(C)Cc1ccc(CCCC=O)cc1", "hepatocytes from male rats (Sprague Dawley)", "Residual conc.", 0.2),
]

The measured values listed here are drawn from patent US20180230399A1.
